molecular target: Glucocorticoid receptor (Homo sapiens) (UniProt P04150); experiment: GR-GFP Redistribution (AID 450); details: U2OS GR-GFP nuclear translocation, laser cytometry, 2 h; further: potency means the concentration at half of the fitted maximal effect
Sequence (P04150 whole entry, looked up): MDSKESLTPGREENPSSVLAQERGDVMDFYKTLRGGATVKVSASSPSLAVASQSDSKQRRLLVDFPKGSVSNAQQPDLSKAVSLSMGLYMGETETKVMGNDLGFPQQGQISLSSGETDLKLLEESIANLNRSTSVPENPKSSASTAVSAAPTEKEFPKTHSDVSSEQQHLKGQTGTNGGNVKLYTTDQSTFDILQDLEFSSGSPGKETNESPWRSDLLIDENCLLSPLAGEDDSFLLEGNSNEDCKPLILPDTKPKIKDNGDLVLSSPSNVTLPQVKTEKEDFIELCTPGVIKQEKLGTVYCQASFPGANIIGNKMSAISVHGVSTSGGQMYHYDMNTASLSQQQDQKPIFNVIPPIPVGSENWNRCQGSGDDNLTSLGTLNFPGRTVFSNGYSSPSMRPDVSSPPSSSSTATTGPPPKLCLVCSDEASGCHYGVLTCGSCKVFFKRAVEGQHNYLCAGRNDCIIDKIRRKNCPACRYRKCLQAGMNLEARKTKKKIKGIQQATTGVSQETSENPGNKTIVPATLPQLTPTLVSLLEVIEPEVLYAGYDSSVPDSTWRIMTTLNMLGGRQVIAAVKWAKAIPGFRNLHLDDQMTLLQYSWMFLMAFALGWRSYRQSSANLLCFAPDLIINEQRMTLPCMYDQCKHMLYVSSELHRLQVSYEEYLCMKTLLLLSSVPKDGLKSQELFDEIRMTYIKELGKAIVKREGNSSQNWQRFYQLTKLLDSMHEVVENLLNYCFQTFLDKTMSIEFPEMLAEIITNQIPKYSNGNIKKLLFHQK
Activity calls are given as the source filed them.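 How the source made its calls: active means compounds whose dose series gives a full or clear partial fitted curve of increased nuclear translocation; inconclusive means weak partial curve or effect only at the top dose; inactive means no dose-dependent translocation response.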
observed-property: Potency

Completed entries (count: 5):
Input line: Provide measured Potency value, entry: C[N+](C)(C)CC#CCOC(=O)Nc1cccc(Cl)c1
Output line: > 46 µM (inactive)

Input line: Provide measured Potency value, entry: CC(C)NP(=O)(NC(C)C)OP(=O)(NC(C)C)NC(C)C
Output line: > 46 µM (inactive)

Input line: Provide measured Potency value, entry: OCc1cnc[nH]1
Output line: > 46 µM (inactive)

Input line: Provide measured Potency value, entry: COc1ccc(OC)c(C(O)C(C)N)c1 (stereo not drawn)
Output line: > 20.6 µM (inactive)

Input line: Provide measured Potency value, entry: C[N+](C)(C)CCOC(=O)CBr
Output line: > 46 µM (inactive)

***
Input line: Provide measured Potency value, entry: CCCN(CCC)CCc1ccc(O)c(O)c1
Output line: > 46 µM (inactive)

Input line: Provide measured Potency value, entry: CN1CCc2cc(O)cc3c2[C@H]1Cc1ccc(O)c(O)c1-3
Output line: > 46 µM (inactive)
